biological target: USP7, full-length, native C-Terminus (Homo sapiens, UniProt Q93009); construct: USP7, full-length, native C-Terminus, 0.2 nM; assay: Biochemical USP7 assay with Ubiquitin-Rho110 substrate, compounds pre-incubated with USP7 (USP7_Ub-Rho preInc); conditions: compounds pre-mixed with USP7, 1 hour incubation, before substrate; read-out: USP7 Ub-Rho preInc (IC50)
Sequence (Q93009 whole entry): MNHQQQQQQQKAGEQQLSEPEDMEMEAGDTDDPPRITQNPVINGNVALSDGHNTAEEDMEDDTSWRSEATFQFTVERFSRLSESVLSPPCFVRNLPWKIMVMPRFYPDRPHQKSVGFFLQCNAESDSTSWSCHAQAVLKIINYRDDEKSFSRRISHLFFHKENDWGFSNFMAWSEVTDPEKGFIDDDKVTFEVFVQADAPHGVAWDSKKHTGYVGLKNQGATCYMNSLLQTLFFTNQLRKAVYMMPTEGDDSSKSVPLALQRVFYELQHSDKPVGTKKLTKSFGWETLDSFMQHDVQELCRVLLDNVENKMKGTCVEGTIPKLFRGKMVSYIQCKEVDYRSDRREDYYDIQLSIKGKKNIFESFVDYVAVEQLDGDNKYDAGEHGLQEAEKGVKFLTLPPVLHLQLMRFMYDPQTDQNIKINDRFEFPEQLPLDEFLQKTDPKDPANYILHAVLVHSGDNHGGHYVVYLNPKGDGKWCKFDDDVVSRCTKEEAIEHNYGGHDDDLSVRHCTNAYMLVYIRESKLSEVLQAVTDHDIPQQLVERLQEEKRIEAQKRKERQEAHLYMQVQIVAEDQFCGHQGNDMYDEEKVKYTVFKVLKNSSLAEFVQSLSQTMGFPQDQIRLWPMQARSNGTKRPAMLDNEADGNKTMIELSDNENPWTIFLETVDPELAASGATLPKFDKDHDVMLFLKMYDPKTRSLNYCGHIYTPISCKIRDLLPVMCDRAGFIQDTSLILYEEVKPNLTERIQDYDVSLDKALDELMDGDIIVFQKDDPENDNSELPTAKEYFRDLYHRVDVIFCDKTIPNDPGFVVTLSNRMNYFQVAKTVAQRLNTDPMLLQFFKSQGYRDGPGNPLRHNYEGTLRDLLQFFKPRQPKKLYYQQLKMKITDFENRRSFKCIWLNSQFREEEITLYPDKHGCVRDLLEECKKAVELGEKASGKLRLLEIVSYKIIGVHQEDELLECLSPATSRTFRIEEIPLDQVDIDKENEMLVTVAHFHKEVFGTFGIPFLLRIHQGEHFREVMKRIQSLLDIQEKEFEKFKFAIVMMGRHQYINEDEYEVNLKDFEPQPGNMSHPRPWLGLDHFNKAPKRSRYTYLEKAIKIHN
Readout Kind: IC50

Solved cases (5 shown):
• CCc1c(-c2cccc(C)c2)cnc(N)c1-c1ccc(O)cc1 = > 20 µM
• CCc1c(-c2cc(F)cc(F)c2)cnc(N)c1-c1ccc(O)cc1 = > 20 µM
• CCc1c(-c2cccc(C(C)C)c2)cnc(N)c1-c1ccc(O)cc1 = > 20 µM
• CCc1c(-c2ccc(O)cc2)cnc(N)c1-c1cccc(CC#N)c1 = 48.7 µM
• CCc1c(-c2ccc(CO)cc2)cnc(N)c1-c1ccc(O)cc1 = > 20 µM

QUERY: Form field: reported IC50 of CCc1c(-c2ccc(F)c(C)c2)cnc(N)c1-c1ccc(O)cc1
RESULT: > 20 µM

QUERY: Form field: reported IC50 of CCc1c(-c2ccc(O)cc2)cnc(N)c1-c1ccc(NC(=O)OC(C)(C)C)cc1
RESULT: > 20 µM

QUERY: Form field: reported IC50 of CCc1c(-c2ccc(O)cc2)cnc(N)c1-c1ccc(F)c(F)c1
RESULT: > 20 µM

QUERY: Form field: reported IC50 of CCc1c(-c2ccc(Cl)c(C)c2)cnc(N)c1-c1ccc(O)cc1
RESULT: > 20 µM
